B1: Pituitary-specific positive transcription factor 1, residues 130 to 198; numbered along this chain, P28069 (parent)
chain: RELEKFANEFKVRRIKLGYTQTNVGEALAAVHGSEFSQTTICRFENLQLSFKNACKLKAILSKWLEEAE

- Variants of: B1
- experimentNotes: abundance fitness (aPCA) (normalised: wild type 0, dead -1); higher = more abundant; growth selection in yeast, the domain comes from the species named
- measurementSetup: Homo sapiens
Would you mind sorting the entries by abundance fitness according to these classes? band 1: < -0.6; band 2: ≥ -0.6 and < -0.2; band 3: ≥ -0.2

Example results:
{"sequenceVariant": "R13A", "classAssignment": "band 3"}
{"sequenceVariant": "S50Y", "classAssignment": "band 1"}
{"sequenceVariant": "Q21P", "classAssignment": "band 2"}
{"sequenceVariant": "K5S", "classAssignment": "band 2"}
{"sequenceVariant": "S34N", "classAssignment": "band 3"}
{"sequenceVariant": "L3I", "classAssignment": "band 3"}
{"sequenceVariant": "K5G", "classAssignment": "band 2"}
{"sequenceVariant": "A59R", "classAssignment": "band 3"}
{"sequenceVariant": "Q21R", "classAssignment": "band 2"}
{"sequenceVariant": "G25K", "classAssignment": "band 1"}

**Query** # bin label for E69R
**Result** band 1

**Query** # bin label for A29P
**Result** band 1

**Query** # bin label for E2D
**Result** band 3

**Query** # bin label for Q48Y
**Result** band 1

**Query** # bin label for C55E
**Result** band 3

**Query** # bin label for K5D
**Result** band 3

**Query** # bin label for N53H
**Result** band 3

**Query** # bin label for K63I
**Result** band 2

**Query** # bin label for E35W
**Result** band 2
